Values were extracted from the supplement of paper PMC10307832.

- Test system: NCI-H1437
- assayOverview: relative viability (nuclei count vs DMSO), 5 days (fraction); higher = more cells survive
- assayContext: first compound 4 µM
Below is a list of entries, each paired with its recorded relative viability value.
The reply should be a number, written without any unit.

Solved entries (count: 5):
{"columns": ["compound", "relative viability"],
 "data": [
  ["Cc1sc2c(c1C)C(c1ccc(Cl)cc1)=N[C@@H](CC(=O)OC(C)(C)C)c1nnc(C)n1-2 [JQ1] + CS(=O)(=O)CCNCc1ccc(-c2ccc3ncnc(Nc4ccc(OCc5cccc(F)c5)c(Cl)c4)c3c2)o1 [Lapatinib] (partner 2 µM)", 0.216],
  ["Cc1sc2c(c1C)C(c1ccc(Cl)cc1)=N[C@@H](CC(=O)OC(C)(C)C)c1nnc(C)n1-2 [JQ1] + NC(=O)Nc1cc(-c2cccc(F)c2)sc1C(=O)N[C@H]1CCCNC1 [AZD7762] (partner 0.2 µM)", 0.445],
  ["Cc1sc2c(c1C)C(c1ccc(Cl)cc1)=N[C@@H](CC(=O)OC(C)(C)C)c1nnc(C)n1-2 [JQ1] + CC(=O)Nc1cccc(-n2c(=O)n(C3CC3)c(=O)c3c(Nc4ccc(I)cc4F)n(C)c(=O)c(C)c32)c1 [Trametinib] (partner 0.02 µM)", 0.26],
  ["Cc1sc2c(c1C)C(c1ccc(Cl)cc1)=N[C@@H](CC(=O)OC(C)(C)C)c1nnc(C)n1-2 [JQ1] + CC1(C)CCC(c2ccc(Cl)cc2)=C(CN2CCN(c3ccc(C(=O)NS(=O)(=O)c4ccc(N[C@H](CCN5CCOCC5)CSc5ccccc5)c(S(=O)(=O)C(F)(F)F)c4)cc3)CC2)C1 [Navitoclax] (partner 0.5 µM)", 0.306],
  ["Cc1sc2c(c1C)C(c1ccc(Cl)cc1)=N[C@@H](CC(=O)OC(C)(C)C)c1nnc(C)n1-2 [JQ1] + Cc1cc(Nc2cc(N3CCN(C)CC3)nc(Sc3ccc(NC(=O)C4CC4)cc3)n2)n[nH]1 [Tozasertib] (partner 0.1 µM)", 0.174]
]}

**Q:** If you can, please state the reported relative viability value of Cc1sc2c(c1C)C(c1ccc(Cl)cc1)=N[C@@H](CC(=O)OC(C)(C)C)c1nnc(C)n1-2 [JQ1] + Nc1nc2[nH]cc(CCc3ccc(C(=O)N[C@@H](CCC(=O)O)C(=O)O)cc3)c2c(=O)[nH]1 [Pemetrexed] (partner 0.2 µM) .
**A:** 0.208
